// data source = ChEMBL document CHEMBL3352228

# ASSAY OVERVIEW: in vitro
# ASSAY CONTEXT: pig, LLC-PK1
VALUE KIND: Papp at 2 h (×10⁻⁶ cm/s)
Answers are plain numbers, in ×10⁻⁶ cm/s.

Here's what some known entries look like.
                               given_smiles  recorded_measurement
0  NC1=N[C@@]2(CO1)c1cc(-c3cccnc3F)ccc1Oc1ncc(C3=CCCOC3)cc12                    11
1  COC(C)(C)C#Cc1cnc2c(c1)[C@]1(COC(N)=N1)c1cc(-c3cccnc3F)ccc1O2                    12
2  CC(C)(C)C#Cc1cnc2c(c1)[C@]1(COC(N)=N1)c1cc(-c3cccnc3F)ccc1O2                   9.5
3  COC(C)(C)COc1cnc2c(c1)[C@]1(COC(N)=N1)c1cc(-c3cccnc3F)ccc1O2                    16
4  CC(C)(C)COc1ccc2c(c1)[C@]1(COC(N)=N1)c1cc(-c3cncnc3)cnc1O2                    16

Can you give me Papp at 2 h for all of these, one by one?
1. CC(C)(C)COc1cnc2c(c1)[C@]1(COC(N)=N1)c1cc(-c3cccnc3)ccc1O2
2. CC(C)(C)COc1cnc2c(c1)[C@]1(COC(N)=N1)c1cc(-c3cncnc3)ccc1O2
3. CC(C)(O)C#Cc1cnc2c(c1)[C@]1(COC(N)=N1)c1cc(-c3cccnc3F)ccc1O2
4. Cc1ccc(-c2cnc3c(c2)[C@]2(COC(N)=N2)c2cc(-c4cccnc4F)ccc2O3)cc1
5. N#Cc1ccc(-c2cnc3c(c2)[C@]2(COC(N)=N2)c2cc(-c4cccnc4F)ccc2O3)cc1
6. NC1=N[C@@]2(CO1)c1cc(-c3cccnc3F)ccc1Oc1ncc(N3CCOCC3)cc12

1: 11; 2: 16; 3: 11; 4: 14; 5: 16; 6: 10

Can you give me Papp at 2 h for all of these, one by one?
1. CC1(C)C=C(c2cnc3c(c2)[C@]2(COC(N)=N2)c2cc(-c4cccnc4F)ccc2O3)CCO1
2. NC1=N[C@@]2(CO1)c1cc(-c3cccnc3F)ccc1Oc1ncc(C3CCOCC3)cc12
3. NC1=N[C@@]2(CO1)c1cc(-c3cccnc3F)ccc1Oc1ncc(C3=CCOCC3)cc12
4. CC(C)(C)COc1cnc2c(c1)[C@]1(COC(N)=N1)c1cc(-c3cccnc3F)ccc1O2
5. NC1=N[C@@]2(CO1)c1cc(-c3cccnc3F)ccc1Oc1ncc(-c3ccnc(F)c3)cc12

1: 17; 2: 15; 3: 20; 4: 14; 5: 15
